- System: SNB-19
- protocolDescription: NCI tumour cell line growth inhibition, 48 h
Activity calls are given as the source filed them. No stated cut-off is given here; in the data, active = GI50 up to about 1.1 µM and inactive = higher.
Mark one answer only. Choices: active, inactive

Request: Assay outcome for C=CCC1NCCC2=C1C(S(=O)(=O)c1ccc(C)cc1)c1ccccc12 (configuration not stated) : what was it?
Result: inactive

Request: Consider next the compound `O=[N+]([O-])C(C=C(n1nnc2ccccc21)n1nnc2ccccc21)=C(n1nnc2ccccc21)n1nnc2ccccc21` in the same way.
Result: active

Request: Consider next the compound `COC(=O)c1csc(-c2nc(CCNC(=O)OC(C)(C)C)sc2Br)n1` in the same way.
Result: inactive

Request: Consider next the compound O=C1CCC(Cl)=CC2CCCN12 (configuration not stated) in the same way.
Result: inactive

Request: Consider next the compound `COc1cc(/C=C(\OC(C)=O)c2ccc3c(c2)OCO3)cc(OC)c1OC` in the same way.
Result: inactive

Request: Consider next the compound CC1NOC(NS(=O)(=O)c2ccc(/N=N/c3c(O)c(C(=O)O)cc4ccccc34)cc2)C1C (configuration not stated) in the same way.
Result: inactive

Request: Consider next the compound CC(=O)N(C(=O)CC(=O)N1N=C(c2ccccc2)C(/N=N/c2ccccc2[N+](=O)[O-])C1=O)c1ccc(Cl)cc1 (configuration not stated) in the same way.
Result: inactive

Request: Consider next the compound COC(=O)C1=C(OC(=O)/C(=C/c2ccccc2)c2ccc([N+](=O)[O-])cc2)C(C(=O)OC)[C@@]2(O)[C@@H](C(=O)OC)[C@H](C)C[C@@H]1[C@@H]2C(=O)OC (some centres not stated) in the same way.
Result: inactive

Request: Consider next the compound `CCN1C=C/C(=C\C=C\c2cc[n+](CC)c3ccccc23)c2ccccc21` in the same way.
Result: inactive

Request: Consider next the compound `COc1c(O)c(OC)c2oc(-c3ccc(O)cc3)c(OC)c(=O)c2c1O` in the same way.
Result: inactive

Request: Consider next the compound `CCCCCCCCCCCCCCCCCCCCCCC(=O)N[C@H]1CCc2cc(OC)c(OC)c(OC)c2-c2ccc(SC)c(=O)cc21` in the same way.
Result: inactive

Request: Consider next the compound `O=c1c2cc(-c3ccccc3)cnc2sn1-c1ccc(Oc2ccccc2)cc1` in the same way.
Result: inactive

Request: Consider next the compound `COc1cc(/N=N/c2cccc(S(N)(=O)=O)c2)c2ccccc2c1N` in the same way.
Result: inactive

Request: Consider next the compound CC(=O)OCC1OC(N=[N+]=[N-])C(OC(C)=O)C(OC(C)=O)C1OC1OC(COC(C)=O)C(OC(C)=O)C(OC(C)=O)C1OC(C)=O (configuration not stated) in the same way.
Result: inactive

Request: Consider next the compound `COc1cc2c(cc1C)NC(=O)/C2=C/c1c(Cl)n(C)c2ccccc12` in the same way.
Result: inactive

Request: Consider next the compound CC(=O)C1C(=O)C(=O)N(c2ccc([N+](=O)[O-])cc2Cl)C1=O (configuration not stated) in the same way.
Result: inactive

Request: Consider next the compound `Cc1cc2ncn(CC(=O)O)c2cc1C` in the same way.
Result: inactive

----------
- System: SNB-75
- protocolDescription: NCI tumour cell line growth inhibition, 48 h
Active and inactive are the calls of the source. Cut-off read from the data, not from the text of the source: active = GI50 up to about 1.1 µM and inactive = higher.
Mark one answer only. Choices: active, inactive

Request: Assay outcome for `[N-]=[N+]=CC(=O)OC1Cc2ccccc2C1` : what was it?
Result: inactive

Request: Consider next the molecule C=C(C)CCC(=O)[C@](C)(O)[C@H]1[C@H](O)C[C@@]2(C)[C@@H]3CCc4c(cc(OC5OC(CO)C(O)C(O)C5O)c(O)c4C)C3(C)C(=O)C[C@]12C (stereo partly drawn) in the same way.
Result: inactive

Request: Consider next the molecule C/C1=C\CC[C@@]2(C)O[C@@H]2C[C@@H]2[C@H](C/C(C)=C/CC1)OC(=O)C21CCN=N1 (stereo partly drawn) in the same way.
Result: inactive

Request: Consider next the molecule CC1CC(=O)CC[C@@H]1OCc1ccccc1 (stereo partly drawn) in the same way.
Result: inactive

Request: Consider next the molecule COc1cc2c(cc1O)C(Cc1ccc(OCc3ccccc3)c(OCc3ccccc3)c1)N(C(=O)NCCc1ccccc1)CC2 (stereo not drawn) in the same way.
Result: inactive

Request: Consider next the molecule `C[C@H](NC(=O)CNC(=O)CCCCCC(=O)NCC(=O)N[C@@H](C)C(=O)OCc1ccccc1)C(=O)OCc1ccccc1` in the same way.
Result: inactive

Request: Consider next the molecule COC(=O)C[C@](O)(CCCC(C)(C)O)C(=O)O[C@@H]1C(OC)=C[C@]23CCCN2CCc2cc4c(cc2[C@H]13)OCO4 [OMACETAXINE MEPESUCCINATE] in the same way.
Result: active

Request: Consider next the molecule O=c1ccn(C2OC(CN(O)CCC3C(O)C(CO)OC3n3ccc(=O)[nH]c3=O)C(O)C2O)c(=O)[nH]1 (stereo not drawn) in the same way.
Result: inactive

----------
- Test system: SNB-19
- protocolDescription: NCI tumour cell line growth inhibition, 48 h
Calls of active or inactive are those of the source. Rule as the data show it: active = GI50 up to about 1.1 µM and inactive = higher.
measurementName: GI50

Request: Any idea what GI50 was measured for `CCOc1cccc(/C=N/N=C2\C(=O)Nc3c(Cl)cc(Cl)cc32)c1O` ?
Result: > 100 µM (inactive)

Request: Consider next the compound `Cc1ccc(S(=O)(=O)NC(=O)Nc2ccc(C(=O)O)c(O)c2)cc1` in the same way.
Result: > 100 µM (inactive)

Request: Consider next the compound CN1CCOC(C(NC(=O)c2ccccc2)c2ccccc2)C1=O (configuration not stated) in the same way.
Result: > 100 µM (inactive)

Request: Consider next the compound CC1=COC2=C(C)C(=O)C(=O)c3c(C)ccc1c32 [MANSONONE F] in the same way.
Result: 4.07 µM (inactive)

Request: Consider next the compound CCOc1ccc(OP2(=O)NC(=O)C=C(C)N2)cc1 (configuration not stated) in the same way.
Result: > 100 µM (inactive)

Request: Consider next the compound `N/C(=N\O)N/N=C\c1ccccc1O` in the same way.
Result: 18.9 µM (inactive)

Request: Consider next the compound `CCCC(=O)c1ccc2c(ccc(=O)n2C)c1` in the same way.
Result: > 100 µM (inactive)

Request: Consider next the compound `CC(=O)CCCCCCCCCCCC[C@@H]1CC[C@H](C)[C@H](O)N1` in the same way.
Result: > 100 µM (inactive)

Request: Consider next the compound COc1cc2oc(=O)ccc2cc1CC=C(C)C [SUBEROSIN] in the same way.
Result: 50.6 µM (inactive)

Request: Consider next the compound `Cc1nc2ccccc2c(=O)n1NC(=O)c1ccc([N+](=O)[O-])cc1` in the same way.
Result: > 100 µM (inactive)

Request: Consider next the compound OCc1ccc2[n+](c1)CCC1c3ccccc3NC21 (configuration not stated) in the same way.
Result: > 300 µM (inactive)

Request: Consider next the compound `CCOC(CN=C=S)OCC` in the same way.
Result: > 10 µM (inactive)

----------
- System: SK-MEL-5
- protocolDescription: NCI tumour cell line growth inhibition, 48 h
Active and inactive are the calls of the source. Rule as the data show it: active = GI50 up to about 1.1 µM and inactive = higher.
Assign GI50 to each entry below.

Request: Missing value: GI50, SK-MEL-5, entry COc1ccc(/C=C2\CC3C4CC=C5C[C@@H](N6CCCC6)CC[C@]5(C)C4CC[C@]3(C)[C@H]2O)cc1OC (some centres undefined) . Fill in?
Result: 7.26 µM (inactive)

Request: Consider next the compound `Cc1c(C#N)c(=N)oc2ccccc12` in the same way.
Result: > 100 µM (inactive)

Request: Consider next the compound `CCCCn1cc(C(=O)O)c(=O)c2c3sccc3ccc21` in the same way.
Result: > 100 µM (inactive)

Request: Consider next the compound `COc1cc2c(cc1O)[C@]1(Cc3ccc4c(c3C1=O)OCO4)N(C)CC2` in the same way.
Result: > 100 µM (inactive)

Request: Consider next the compound CC(C)C1=CC(=O)C(C)(C2C(O)CC3(C)C4CC=C5C(CCC(OC6OC(CO)C(O)C(O)C6OC6OC(C)C(O)C(O)C6O)C5(C)C)C4(C)C(=O)CC23C)O1 (centres undefined) in the same way.
Result: > 100 µM (inactive)

Request: Consider next the compound `Cn1ncc2c(=O)[nH]c(-c3ccccc3)nc21` in the same way.
Result: > 100 µM (inactive)

Request: Consider next the compound `N/C(=N\O)N/N=C\c1ccccc1O` in the same way.
Result: 10 µM (inactive)

Request: Consider next the compound `O=C(c1ccncc1)n1nc(-c2ccccc2)c(/N=N/c2ccc([N+](=O)[O-])cc2)c1-c1ccccc1` in the same way.
Result: 27.3 µM (inactive)

Request: Consider next the compound O=C(Nc1ccc([N+](=O)[O-])cc1)C1C(=O)C(=O)N(c2ccc([N+](=O)[O-])cc2)C1=O (centres undefined) in the same way.
Result: 12 µM (inactive)

----------
- Tested on: MDA-MB-435
- protocolDescription: NCI tumour cell line growth inhibition, 48 h
Structures can show the parent of a compound that is named as a salt. Active and inactive are the calls of the source. Rule as the data show it: active = GI50 up to about 1.1 µM and inactive = higher.
Mark one answer only. Choices: active, inactive

Request: Assay outcome for CCOC(=O)C(NC(=O)c1cccc(Cl)c1)(Nc1cccc(C)c1)C(F)(F)F (stereo not given) : what was it?
Result: inactive

Request: Consider next the compound `Cc1cc2ncn(CC(=O)O)c2cc1C` in the same way.
Result: inactive

Request: Consider next the compound O=C(O)CCC(NC(=O)c1ccc(CNc2nc3ccccc3nc2C(=O)O)cc1)C(=O)O (stereo not given) in the same way.
Result: inactive

Request: Consider next the compound CCC(C)C(C(=O)N/N=C1/SCC(=O)N1C)C(=O)N/N=C1/SCC(=O)N1C (stereo not given) in the same way.
Result: inactive

Request: Consider next the compound Cn1c2nc3ccccc3c-2cc2ccccc21 [NEOCRYPTOLEPINE HYDROCHLORIDE] in the same way.
Result: inactive

Request: Consider next the compound CC(=O)C1C(=O)C(C(C)=O)C2C3C=CC(C3)C12 (stereo not given) in the same way.
Result: inactive

Request: Consider next the compound CC1=COC2=C(C)C(=O)C(=O)c3c(C)ccc1c32 [MANSONONE F] in the same way.
Result: inactive

Request: Consider next the compound `Clc1cccc(-c2sc(-c3cccs3)cc2Cc2cccs2)c1` in the same way.
Result: inactive

Request: Consider next the compound `CCOC(=O)CSc1nc(-c2ccc(OC)cc2)c(C#N)c(=O)[nH]1` in the same way.
Result: inactive

Request: Consider next the compound `CC1=NN(C(=O)c2ccccc2O)C(=O)/C1=C/c1ccco1` in the same way.
Result: active
